Provenance of the data: ChEMBL document CHEMBL1201862

test system: HL-60; assay: NCI tumour cell line growth inhibition, 48 h
The source made the active and inactive calls. No stated cut-off is given here; in the data, active = GI50 up to about 1.1 µM and inactive = higher.
measurement label: GI50

COC(=O)c1cc(C#N)[nH]c1-c1ccc(Br)s1 :: 11.5 µM (inactive)
CN(C)/N=C1\C=C2CC[C@H](O[Si](C)(C)C(C)(C)C)[C@@]2(C)CC1 :: 7.93 µM (inactive)
O=C(O)Cc1ccc([N+](=O)[O-])cc1[N+](=O)[O-] :: > 100 µM (inactive)
C1=N\CCN2CCN(CC/N=C\c3ccccc3OCc3cccc(n3)COc3ccccc3/1)CC2 :: 3.16 µM (inactive)
CCOC(=O)N1N=NC2C3OC(C[C@@]3(C#N)OC(C)=O)[C@H]21 (stereo partly specified) :: > 100 µM (inactive)
O=C1C2CC(Cl)C(SSC3CC4C(=O)N(SC(Cl)(Cl)C(Cl)Cl)C(=O)C4CC3Cl)CC2C(=O)N1SC(Cl)(Cl)C(Cl)Cl (stereo unspecified) :: 0.543 µM (active)
CCOC(=O)COc1ccc2c(C)cc(=O)oc2c1 :: > 100 µM (inactive)
O=C(CCCCCCCCC(=O)OCC1OC(n2cnc3c(=O)[nH]cnc32)C(O)C1O)OCC1OC(n2cnc3c(=O)[nH]cnc32)C(O)C1O (stereo unspecified) :: > 100 µM (inactive)
O=[N+]([O-])C(=C/c1cccs1)/C(=C\c1cccs1)[N+](=O)[O-] :: 0.0246 µM (active)
C/C(CC(=O)Nc1ccccc1)=N\NC(N)=S :: > 100 µM (inactive)

Fill in GI50 for each of the 5 molecules listed.
1. S=C1NCCN1C(=S)NC1CCCCC1
2. COc1cc(C(=O)NO)ccc1O
3. Cc1ccccc1/N=N/c1ccc(/N=N/c2c(O)ccc3cc(S(=O)(=O)O)cc(S(=O)(=O)O)c23)c(C)c1
4. C=C1CC(Cn2cc(Br)c(=O)[nH]c2=O)(c2ccc(Br)cc2)OC1=O (stereo unspecified)
5. CC(C)c1ccccc1NC(=O)CCc1n[nH]c(=S)o1

40.7 µM (inactive)
> 100 µM (inactive)
> 100 µM (inactive)
0.621 µM (active)
> 59.8 µM (inactive)

====

test system: SK-MEL-2; experiment: NCI tumour cell line growth inhibition, 48 h
Activity calls are given as the source filed them. No stated cut-off is given here; in the data, active = GI50 up to about 1.1 µM and inactive = higher.
measurement label: GI50

CCN(C(=S)N[C@H](C(=O)N[C@@H](C)C(=O)OC)C(C)C)c1ccccc1 :: > 100 µM (inactive)
O=C1NC2OC(CO)C(O)C(O1)C2O (stereo unspecified) :: > 100 µM (inactive)
O=c1c(C(c2ccc(OCc3ccccc3)cc2)c2c(O)oc3ccccc3c2=O)c(O)oc2ccccc12 :: 61.1 µM (inactive)

Go through the list and state GI50 for each entry.
1. CCOP(=O)(OCC)/C(C#N)=C/c1[nH]cnc1C
2. O=[N+]([O-])c1ccc2oc(=N/c3ccccc3)/c(=N\c3ccccc3)[nH]c2c1
3. Clc1nc(-[n+]2ccc(-c3ccncc3)cc2)nc(Nc2ccccc2)c1Cl

> 100 µM (inactive)
36.7 µM (inactive)
> 100 µM (inactive)

====

system: SK-MEL-28; assay: NCI tumour cell line growth inhibition, 48 h
Activity calls are given as the source filed them. No stated cut-off is given here; in the data, active = GI50 up to about 1.1 µM and inactive = higher.
Your answer must be one of the following: label 1 for active, label 0 for inactive

Known results for compounds:
COc1ccc2c(c1)N(CCC1CCCCN1C)c1ccccc1S2 (configuration not stated) [OXYRIDAZINE] :: label 0
S=C(/N=c1/sc(Nc2ccccc2)nc2sc3c(c12)CCCC3)Nc1ccccc1 :: label 0
O=c1cc(NNc2ccccc2)[nH]c(=S)[nH]1 :: label 0
Cc1cc(O)nc(NN2C(Cl)C(=O)C2c2cccc(Cl)c2)n1 (configuration not stated) :: label 0
C/C1=C\CC[C@@]2(C)O[C@@H]2C[C@@H]2[C@H](C/C(C)=C/CC1)OC(=O)C21CC1 :: label 0
CN(C)CCNc1nc2ccccc2c2c1C(=O)c1ccccc1-2 :: label 1
N=c1oc2ccccc2cc1C(=O)Nc1cccc2ccccc12 :: label 0
CCN(C(=S)N[C@H](C(=O)N[C@@H](C)C(=O)OC)C(C)C)c1ccccc1 :: label 0
CC(=O)C(CN1CCCCC1)C(c1ccccc1)c1c(O)c2ccccc2oc1=O (configuration not stated) :: label 0
Cc1ccc(C2=Nc3ccccc3[S+]([O-])C(c3ccc4c(c3)OCO4)C2)cc1 (configuration not stated) :: label 0

In the following, a different compound is considered.
Which outcome did this test record for the compound COc1cc(CCc2ccncc2)cc(OC)c1OC ?
label 0
